// data source = the NIST ThermoML archive (doi:10.1016/j.jct.2007.01.010)

Conditions: 293.15 K; 101 kPa; Liquid
Task for the reader: assign each of the following compounds its reported viscosity.
Answers are plain numbers, in mPa·s.

INSERT INTO results (smiles_data, observed_measurement) VALUES
  ('CCOCCOCCO', 4.464),
  ('CCOCCOCCOCCO', 8.087),
  ('CCOCCO', 2.142);

Now turn to the next compound.
Enquiry: If you can, please state the reported viscosity value of CCOC(C)(C)C .
Return: 0.532

###

Details: 298.15 K; 101 kPa; Liquid
Reported endpoint: viscosity (mPa·s)
Numbers only, in mPa·s.

Consider the worked cases shown below.
INSERT INTO results (compound, reported_endpoint, unit_of_measurement, observed_measurement) VALUES
  ('CCOCCOCCOCCO [2-(2-(2-ethoxyethoxy)ethoxy)ethanol]', 'viscosity', 'mPa·s', 7.049),
  ('CCOCCOCCO [3,6-dioxa-1-octanol]', 'viscosity', 'mPa·s', 3.976),
  ('CCOC(C)(C)C [2-ethoxy-2-methylpropane]', 'viscosity', 'mPa·s', 0.504);

Now turn to the next compound.
Enquiry: If you can, please state the reported viscosity value of CCOCCO [2-ethoxyethan-1-ol] .
Return: 1.848
